Listed here are molecules together with their documented kinase still bound, per cent of control.
# target desc: FES (human) (UniProt P07332)
# Sequence (P07332 whole entry, looked up): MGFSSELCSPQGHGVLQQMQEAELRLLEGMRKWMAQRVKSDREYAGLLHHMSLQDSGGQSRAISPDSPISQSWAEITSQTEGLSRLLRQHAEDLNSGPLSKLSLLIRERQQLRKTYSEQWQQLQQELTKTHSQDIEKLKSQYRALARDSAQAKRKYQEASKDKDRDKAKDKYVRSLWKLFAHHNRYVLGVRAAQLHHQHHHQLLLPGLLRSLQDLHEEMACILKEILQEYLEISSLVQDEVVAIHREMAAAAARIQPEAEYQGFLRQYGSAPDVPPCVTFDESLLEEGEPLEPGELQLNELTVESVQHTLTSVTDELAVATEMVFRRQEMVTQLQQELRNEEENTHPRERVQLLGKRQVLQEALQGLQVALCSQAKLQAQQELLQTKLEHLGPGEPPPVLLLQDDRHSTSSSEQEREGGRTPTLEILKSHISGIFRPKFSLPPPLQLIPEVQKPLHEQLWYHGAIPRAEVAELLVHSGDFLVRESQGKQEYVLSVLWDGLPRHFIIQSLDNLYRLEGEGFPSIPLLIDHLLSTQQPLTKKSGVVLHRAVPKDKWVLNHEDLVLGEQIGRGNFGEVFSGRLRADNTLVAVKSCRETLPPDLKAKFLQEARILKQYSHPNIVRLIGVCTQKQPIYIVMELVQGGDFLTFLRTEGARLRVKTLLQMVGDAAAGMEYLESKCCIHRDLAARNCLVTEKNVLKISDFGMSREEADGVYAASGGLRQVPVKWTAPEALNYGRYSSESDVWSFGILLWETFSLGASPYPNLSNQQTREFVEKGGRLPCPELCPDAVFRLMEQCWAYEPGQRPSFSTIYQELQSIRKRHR
# protocol notes: KINOMEscan competition binding
# assay context: compound 10.0 µM
Value expressed in %; do not type the unit.

CNC(=O)c1cc(Oc2ccc(NC(=O)Nc3ccc(Cl)c(C(F)(F)F)c3)cc2)ccn1 74
C=CC(=O)Nc1ccc(CN(C(=O)Nc2c(Cl)c(OC)cc(OC)c2Cl)c2cc(Nc3ccc(N4CCN(C)CC4)cc3)ncn2)cc1 4
COc1cc2ncn(-c3cc(OCc4ccccc4C(F)(F)F)c(C(N)=O)s3)c2cc1OC 87
CN(C)C/C=C/C(=O)Nc1ccc(C(=O)Nc2cccc(Nc3nccc(-c4cccnc4)n3)c2)cc1 99
COCC(=O)NC/C=C/c1ccc2ncnc(Nc3ccc(Oc4ccc(C)nc4)c(C)c3)c2c1 100

Checklist item: kinase still bound, per cent of control tested on FES (human) (UniProt P07332), entry CCN(CC)CCCCNc1ncc2cc(-c3cc(OC)cc(OC)c3)c(NC(=O)NC(C)(C)C)nc2n1 , value?
100

Another molecule to look at: CCN1CCN(C(=O)Cc2ccc(Nc3ncc(F)c(Nc4ccc(C(=O)Nc5ccccc5Cl)cc4)n3)cc2)CC1
48

Let us now turn to NC(=O)Nc1cc(-c2cccc(F)c2)sc1C(=O)N[C@@H]1CCCNC1
0.65

Now the molecule O=c1cc(N2CCOCC2)oc2c(-c3cccc4c3sc3ccccc34)cccc12
93

Also check COc1ccc(N(C(=O)Oc2c(C)cccc2C)c2ccnc(Nc3ccc(N4CCN(C)CC4)cc3)n2)c(OC)c1
0.35

Also O=C(Nc1cccc(Nc2ncc(Br)c(NCCc3cnc[nH]3)n2)c1)N1CCCC1 , if possible.
33

Next molecule up: Cc1n[nH]c2ccc(-c3cncc(OC[C@@H](N)Cc4c[nH]c5ccccc45)c3)cc12
100

Moving on to the next molecule: CNC(=O)c1ccc(Nc2cc(Nc3ccccc3S(=O)(=O)C(C)C)c3cc[nH]c3n2)nc1
12

Consider next the molecule CCN(CC)CCCCNc1ncc2c(n1)N(C)C(=O)N(c1c(Cl)c(OC)cc(OC)c1Cl)C2 in the same way.
100

Same thing, different molecule: COc1cc(C(=O)N2CCC(N3CCN(C)CC3)CC2)ccc1Nc1ncc2c(n1)N(C)c1ccccc1C(=O)N2C
84

---

Listed here: items and their measured kinase still bound, per cent of control.
# target desc: TEC (human) (UniProt P42680)
# Sequence (P42680 whole entry, looked up): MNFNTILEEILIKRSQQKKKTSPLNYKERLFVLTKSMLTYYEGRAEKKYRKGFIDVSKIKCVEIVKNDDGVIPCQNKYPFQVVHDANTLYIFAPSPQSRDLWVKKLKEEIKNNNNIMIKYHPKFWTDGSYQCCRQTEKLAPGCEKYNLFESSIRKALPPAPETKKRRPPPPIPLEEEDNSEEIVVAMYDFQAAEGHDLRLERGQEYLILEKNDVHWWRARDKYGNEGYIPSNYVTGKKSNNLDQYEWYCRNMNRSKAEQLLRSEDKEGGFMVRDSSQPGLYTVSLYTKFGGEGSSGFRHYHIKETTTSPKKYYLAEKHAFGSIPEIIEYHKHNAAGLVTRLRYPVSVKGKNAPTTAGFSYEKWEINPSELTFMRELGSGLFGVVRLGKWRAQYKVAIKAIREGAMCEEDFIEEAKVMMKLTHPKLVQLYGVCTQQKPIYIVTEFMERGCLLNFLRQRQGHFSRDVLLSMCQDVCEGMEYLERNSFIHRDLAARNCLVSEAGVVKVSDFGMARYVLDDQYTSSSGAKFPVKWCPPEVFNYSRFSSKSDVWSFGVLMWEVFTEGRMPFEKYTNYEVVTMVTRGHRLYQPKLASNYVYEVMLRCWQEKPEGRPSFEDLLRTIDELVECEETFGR
# protocol notes: KINOMEscan competition binding
# assay context: compound 10.0 µM

COc1cc2ncn(-c3cc(OCc4ccccc4C(F)(F)F)c(C(N)=O)s3)c2cc1OC 94%

Look up kinase still bound, per cent of control for this compound: C=CC(=O)Nc1cc(-n2c(=O)ccc3cnc4ccc(-c5cn[nH]c5)cc4c32)ccc1C
6%

What do you have for COc1cc(C(=O)N2CCC(N3CCN(C)CC3)CC2)ccc1Nc1ncc2c(n1)N(C)c1ccccc1C(=O)N2C ?
100%

---

# target desc: UniProtKB Q9UPE1
# Sequence (Q9UPE1 whole entry, looked up): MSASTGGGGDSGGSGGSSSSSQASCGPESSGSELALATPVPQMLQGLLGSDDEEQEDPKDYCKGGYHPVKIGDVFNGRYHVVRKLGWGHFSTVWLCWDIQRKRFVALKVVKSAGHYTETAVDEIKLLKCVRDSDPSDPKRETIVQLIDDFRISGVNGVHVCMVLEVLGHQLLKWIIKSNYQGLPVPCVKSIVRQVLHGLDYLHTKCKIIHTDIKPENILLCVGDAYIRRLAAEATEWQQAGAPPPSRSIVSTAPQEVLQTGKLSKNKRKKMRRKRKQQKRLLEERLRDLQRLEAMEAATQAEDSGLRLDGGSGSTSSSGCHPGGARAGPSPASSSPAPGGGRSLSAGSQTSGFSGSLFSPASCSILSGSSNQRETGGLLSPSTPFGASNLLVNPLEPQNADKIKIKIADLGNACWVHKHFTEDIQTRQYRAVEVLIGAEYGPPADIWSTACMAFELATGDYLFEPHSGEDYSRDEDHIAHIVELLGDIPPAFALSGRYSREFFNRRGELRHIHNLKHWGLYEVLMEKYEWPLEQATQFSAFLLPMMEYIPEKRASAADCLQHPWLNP
# protocol notes: KINOMEscan competition binding
# assay context: compound 10.0 µM
measured endpoint: kinase still bound, per cent of control
Hi, when you answer, please include the unit after the number. Thanks!

N#CCNC(=O)c1ccc(-c2ccnc(Nc3ccc(N4CCOCC4)cc3)n2)cc1 18%
CN(C)C/C=C/C(=O)Nc1ccc(C(=O)Nc2cccc(Nc3nccc(-c4cccnc4)n3)c2)cc1 28%

// next entry
May I ask what kinase still bound, per cent of control has been recorded for O=c1cc(N2CCOCC2)oc2c(-c3cccc4c3sc3ccccc34)cccc12 ?
100%
